Tested on: human monoclonal antibody CR57
Format: binding
The threshold is inclusive: Binding of CR57 to linear peptide (PEPSCAN-ELISA signal) of exactly 90 counts as label 1; values below receive label 0.

Take a look at these entries with their results.
{"RESIDUE_STRING": "WLRTVKTTKESLVII", "CATEGORY_LABEL": "label 0"}
{"RESIDUE_STRING": "RCHPHVNGVFFNGII", "CATEGORY_LABEL": "label 1"}
{"RESIDUE_STRING": "IFNKTLMEADAHYKS", "CATEGORY_LABEL": "label 1"}

**Q:** Determine whether this sequence has Binding of CR57 to linear peptide (PEPSCAN-ELISA signal) no lower than 90: ACKLKLCGVLGLRLM
**A:** label 1

**Q:** Similarly, PRLGMSCDIFTNSRG ?
**A:** label 0

====

Assignment: determine reported Binding of CRJA to looped/cyclic peptide (PEPSCAN-ELISA signal) for the given sequences.
Tested on: human monoclonal antibody CRJA
Format: binding

{"RESIDUE_STRING": "STVFKDGDEAEDFVE", "READOUT_VALUE": 100}
{"RESIDUE_STRING": "DGDEAEDFVEVHLPD", "READOUT_VALUE": 71}
{"RESIDUE_STRING": "LADPSTVFKDGDEAE", "READOUT_VALUE": 90}
{"RESIDUE_STRING": "EDFVEVHLPDVHNQV", "READOUT_VALUE": 104}

In the following, a different sequence is considered.
**Q:** Recorded Binding of CRJA to looped/cyclic peptide (PEPSCAN-ELISA signal) for HPLADPSTVFKDGDE , please?
**A:** 115

====

Assignment: determine reported Binding of CRJB (10 μg/ml) to looped/cyclic peptide (PEPSCAN-ELISA) for the given sequences.
System: human monoclonal antibody CRJB
Type: binding
One number for each entry.

Solved entries:
{"RESIDUE_STRING": "PLVHPLADPSTVFKD", "TARGET_ENTITY": "human monoclonal antibody CRJB", "READOUT_VALUE": 90}
{"RESIDUE_STRING": "DFRSDEIEHLVVEEL", "TARGET_ENTITY": "human monoclonal antibody CRJB", "READOUT_VALUE": 58}

# per-item lookup of Binding of CRJB (10 μg/ml) to looped/cyclic peptide (PEPSCAN-ELISA); items listed below
1. VSFRRLSHLRKLVPG
2. ALESIMTTKSVSFRR
3. ADAHYKSVRTWNEIL
4. CPPDQLVNLHDFRSD
5. DGTWVAMQTSNETKW
6. LCGVLGLRLMDGTWV
7. PDGNVLIPEMQSSLL
8. WNEILPSKGCLRVGG

**A:**
[94, 111, 82, 123, 58, 104, 108, 98]

# per-item lookup of Binding of CRJB (10 μg/ml) to looped/cyclic peptide (PEPSCAN-ELISA); items listed below
1. VNGVFFNGIILGPDG
2. RVGGRCHPHVNGVFF
3. RLSHLRKLVPGFGKA
4. SSVIPLVHPLADPST

**A:**
[96, 104, 111, 80]

====

Assignment: determine reported Binding of CR57 (10 μg/ml) to looped/cyclic peptide (PEPSCAN-ELISA) for the given sequences.
Test system: human monoclonal antibody CR57
Assay type: binding
Give bare numbers.

{"RESIDUE_STRING": "CLRVGGRCHPHVNGV", "READOUT_VALUE": 101}
{"RESIDUE_STRING": "CPPDQLVNLHDFRSD", "READOUT_VALUE": 137}
{"RESIDUE_STRING": "ELVRKREECLDALES", "READOUT_VALUE": 93}
{"RESIDUE_STRING": "GKRASKGSETCGFVD", "READOUT_VALUE": 82}
{"RESIDUE_STRING": "FNGIILGPDGNVLIP", "READOUT_VALUE": 94}

# per-item lookup of Binding of CR57 (10 μg/ml) to looped/cyclic peptide (PEPSCAN-ELISA); items listed below
1. MQSSLLQQHMELLES
2. LGPDGNVLIPEMQSS
3. GLYKSLKGACKLKLC
4. VPGFGKAYTIFNKTL
5. SDEIEHLVVEELVRK
6. KSLKGACKLKLCGVL
7. ALESIMTTKSVSFRR

**A:**
72
150
86
74
96
106
136

# per-item lookup of Binding of CR57 (10 μg/ml) to looped/cyclic peptide (PEPSCAN-ELISA); items listed below
1. PHVNGVFFNGIILGP
2. LESSVIPLVHPLADP

**A:**
1. 112
2. 120

# per-item lookup of Binding of CR57 (10 μg/ml) to looped/cyclic peptide (PEPSCAN-ELISA); items listed below
1. VEELVRKREECLDAL
2. SNETKWCPPDQLVNL
3. FRRLSHLRKLVPGFG
4. HYKSVRTWNEILPSK
5. REECLDALESIMTTK
6. RVGGRCHPHVNGVFF

**A:**
55
129
128
112
89
107

# per-item lookup of Binding of CR57 (10 μg/ml) to looped/cyclic peptide (PEPSCAN-ELISA); items listed below
1. EIEHLVVEELVRKRE
2. VNGVFFNGIILGPDG
3. GGRCHPHVNGVFFNG
4. ESSVIPLVHPLADPS
5. LVNLHDFRSDEIEHL

**A:**
1: 107; 2: 90; 3: 134; 4: 108; 5: 1

====

Assignment: determine reported Binding of CRJA to linear peptide (PEPSCAN-ELISA signal) for the given sequences.
Tested on: human monoclonal antibody CRJA
Type: binding
Give bare numbers.

Solved entries:
{"RESIDUE_STRING": "GLYKSLKGACKLKLC", "READOUT_VALUE": 91}
{"RESIDUE_STRING": "LDKLGPWSPIDIHHL", "READOUT_VALUE": 59}
{"RESIDUE_STRING": "WMPENPRLGMSCDIF", "READOUT_VALUE": 97}
{"RESIDUE_STRING": "HDYTIWMPENPRLGM", "READOUT_VALUE": 110}
{"RESIDUE_STRING": "GFGKAYTIFNKTLME", "READOUT_VALUE": 98}
{"RESIDUE_STRING": "EESLHNPYPDYRWLR", "READOUT_VALUE": 85}
{"RESIDUE_STRING": "GVVTEAENYTNFVGY", "READOUT_VALUE": 76}
{"RESIDUE_STRING": "KFPIYTILDKLGPWS", "READOUT_VALUE": 65}
{"RESIDUE_STRING": "CLRVGGRCHPHVNGV", "READOUT_VALUE": 103}
{"RESIDUE_STRING": "RTVKTTKESLVIISP", "READOUT_VALUE": 103}

# per-item lookup of Binding of CRJA to linear peptide (PEPSCAN-ELISA signal); items listed below
1. LGPWSPIDIHHLSCP
2. CPPDQLVNLHDFRSD
3. CHPHVNGVFFNGIIL
4. NGIILGPDGNVLIPE

**A:**
[84, 115, 94, 89]

# per-item lookup of Binding of CRJA to linear peptide (PEPSCAN-ELISA signal); items listed below
1. SKGCLRVGGRCHPHV
2. TTTFKRKHFRPTPDA
3. TTFKRKHFRPTPDAC
4. TCGFVDERGLYKSLK
5. YCSTNHDYTIWMPEN
6. AMQTSNETKWCPPDQ
7. VAVSSTYCSTNHDYT

**A:**
1. 87
2. 76
3. 111
4. 104
5. 76
6. 85
7. 106

# per-item lookup of Binding of CRJA to linear peptide (PEPSCAN-ELISA signal); items listed below
1. GMSCDIFTNSRGKRA
2. PLVHPLADPSTVFKD
3. KWCPPDQLVNLHDFR
4. CSGVAVSSTYCSTNH
5. WKMAGDPRYEESLHN
6. ASKGSETCGFVDERG
7. GPDGNVLIPEMQSSL
8. AENYTNFVGYVTTTF

**A:**
71
90
97
106
86
106
91
74

# per-item lookup of Binding of CRJA to linear peptide (PEPSCAN-ELISA signal); items listed below
1. HHLSCPNNLVVEDEG
2. DRSLHSRVFPSGKCS
3. KSLKGACKLKLCGVL
4. TNFVGYVTTTFKRKH

**A:**
1. 72
2. 187
3. 91
4. 96

# per-item lookup of Binding of CRJA to linear peptide (PEPSCAN-ELISA signal); items listed below
1. ESLHNPYPDYRWLRT
2. QSSLLQQHMELLESS
3. DIHHLSCPNNLVVED

**A:**
[80, 98, 61]

# per-item lookup of Binding of CRJA to linear peptide (PEPSCAN-ELISA signal); items listed below
1. VSFRRLSHLRKLVPG
2. ELVRKREECLDALES
3. KCSGVAVSSTYCSTN
4. LHDFRSDEIEHLVVE
5. HSRVFPSGKCSGVAV
6. NHDYTIWMPENPRLG

**A:**
[55, 97, 111, 110, 111, 108]

# per-item lookup of Binding of CRJA to linear peptide (PEPSCAN-ELISA signal); items listed below
1. NGFTCTGVVTEAENY
2. TTKESLVIISPSVAD
3. IISPSVADLDPYDRS
4. YTILDKLGPWSPIDI

**A:**
[98, 91, 98, 93]
